Tested on: MCF7 breast
EXPERIMENT_DESCRIPTION: NCI-60 one-dose screen, 48 h (100 = growth as untreated, 0 = no growth, -100 = all killed)
PARTICULARS: 10 µM unless noted
Compounds without any hit were thinned out: in the full panel of roughly 83,000, 20% have a hit.
For each record, check the reported growth: if it is below 90% write fulfilled, else write not fulfilled.

[[record]]
compound = "CCN1CCN(c2nc(NNC(=O)c3ccc(OC)cc3)nc(N3CCN(C(c4ccccc4)c4ccccc4)CC3)n2)CC1"
label = "fulfilled"

[[record]]
compound = "Cc1cc(C)n(C(=O)CSc2nc3sc4c(c3c(=O)n2-c2ccccc2)CCCCC4)n1"
label = "not fulfilled"

[[record]]
compound = "C#CCOc1cccc(Nc2ncnc3c(NC(=O)CCl)cccc23)c1"
label = "fulfilled"

[[record]]
compound = "O=C(NCCN1CCOCC1)c1cncnc1Nc1ccc2c(ccn2Cc2ccccn2)c1"
label = "not fulfilled"

[[record]]
compound = "COc1cc(OCc2cccc(-c3ccc4c(c3)OCCO4)c2C)cc(OC)c1C=O"
label = "fulfilled"


Query: For this compound, is growth lower than 90%? O=C1CCC(C(=O)N/N=C/c2ccc([N+](=O)[O-])cc2)N1 (stereo not drawn)
Reply: not fulfilled

Query: Just wondering, is growth of O=C1OCC2=C1C(c1cccc(F)c1)c1cc3c(cc1N2CCO)CCC3 (stereo not drawn) below 90%?
Reply: fulfilled

Query: Is 90% strictly greater than the compound's reported growth? compound: CSc1nc(N)c2c(n1)NC(c1ccccc1)C1CCc3ccccc3C1=N2 (stereo not drawn)
Reply: fulfilled

Query: growth under 90%? Item: "[2H]C([2H])([2H])Oc1c(F)cccc1/C=C/C(=O)/C=C(O)/C=C/c1cccc(F)c1OC([2H])([2H])[2H]"
Reply: fulfilled

Query: Hi there! Is growth for "COc1cc2c(cc1OC)CC[N+](CCC[N+](C)(C)C)=C2" below 90%, do you know?
Reply: not fulfilled

----------
Tested on: DU-145 prostate
EXPERIMENT_DESCRIPTION: NCI-60 one-dose screen, 48 h (100 = growth as untreated, 0 = no growth, -100 = all killed)
PARTICULARS: 10 µM unless noted
Description: Cells are grown in 96 well plates and exposed to the test compound for 48 hours. Compounds are tested at a single concentration, which is 10^-5 M for most compounds. The reported endpoint is percent growth (GI% or GIPRCNT), where numbers from 0 - 100% represent growth inhibition, and numbers from -100% - 0 represent cell death. For example, a value of 40 represents 60% growth inhibition. A value of 0 means no net growth occurred over the course of the experiment. […]
About 83,000 compounds went through this panel and 20% of them were active in at least one assay; those are over-represented in the sample as a whole. Calls of active or inactive are those of the source. The calls were made as follows: active = growth percent below 10; inactive = the rest.
ENDPOINT: growth

[[record]]
record_smiles = "C#CCOc1cccc(-c2ncnc3cc(NC(=O)CCl)ccc23)c1"
target_system = "DU-145 prostate"
endpoint = "growth"
result = "13.9% (inactive)"

[[record]]
record_smiles = "CC(C)(C#N)c1cc(C(=O)Nc2cc(Nc3ncccc3-c3ncnc4nc[nH]c34)ccc2F)cc(C(F)(F)F)c1"
target_system = "DU-145 prostate"
endpoint = "growth"
result = "66% (inactive)"


Now turn to the next compound.
Query: Fill in: growth on DU-145 prostate, entry "Nc1ccc(Cl)c2c(=O)c3ccccc3[nH]c12"
Reply: 94.1% (inactive)
